Target: PI3Kα (Homo sapiens, UniProt P42336)
Sequence (P42336 whole entry): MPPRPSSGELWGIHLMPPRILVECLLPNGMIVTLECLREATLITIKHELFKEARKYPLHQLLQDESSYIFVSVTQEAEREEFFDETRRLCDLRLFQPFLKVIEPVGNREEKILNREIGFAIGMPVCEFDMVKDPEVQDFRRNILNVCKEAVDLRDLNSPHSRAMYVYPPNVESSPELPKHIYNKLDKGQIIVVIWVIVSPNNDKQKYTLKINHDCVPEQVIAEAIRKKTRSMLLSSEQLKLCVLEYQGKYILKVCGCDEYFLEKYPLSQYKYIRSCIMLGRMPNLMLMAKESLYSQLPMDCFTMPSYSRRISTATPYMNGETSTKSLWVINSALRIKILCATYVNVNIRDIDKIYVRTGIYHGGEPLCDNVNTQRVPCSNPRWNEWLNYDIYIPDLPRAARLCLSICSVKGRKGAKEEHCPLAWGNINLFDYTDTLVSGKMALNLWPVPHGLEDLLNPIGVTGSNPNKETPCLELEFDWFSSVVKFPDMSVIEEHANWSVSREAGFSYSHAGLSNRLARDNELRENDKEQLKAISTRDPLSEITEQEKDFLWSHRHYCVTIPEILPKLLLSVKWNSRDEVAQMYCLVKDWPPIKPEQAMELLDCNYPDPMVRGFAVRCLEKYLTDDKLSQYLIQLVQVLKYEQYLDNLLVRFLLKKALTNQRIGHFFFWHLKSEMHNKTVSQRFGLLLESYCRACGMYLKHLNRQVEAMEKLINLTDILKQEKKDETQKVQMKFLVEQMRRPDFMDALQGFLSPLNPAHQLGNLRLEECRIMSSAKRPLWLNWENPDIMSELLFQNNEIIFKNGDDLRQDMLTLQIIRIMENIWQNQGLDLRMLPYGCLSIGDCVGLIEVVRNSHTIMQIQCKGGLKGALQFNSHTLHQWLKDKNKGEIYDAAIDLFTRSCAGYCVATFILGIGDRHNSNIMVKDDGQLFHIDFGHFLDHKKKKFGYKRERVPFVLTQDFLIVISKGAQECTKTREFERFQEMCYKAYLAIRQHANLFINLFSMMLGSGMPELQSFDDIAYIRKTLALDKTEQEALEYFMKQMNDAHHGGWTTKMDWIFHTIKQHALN
Sequence (P27986 2-724 partner): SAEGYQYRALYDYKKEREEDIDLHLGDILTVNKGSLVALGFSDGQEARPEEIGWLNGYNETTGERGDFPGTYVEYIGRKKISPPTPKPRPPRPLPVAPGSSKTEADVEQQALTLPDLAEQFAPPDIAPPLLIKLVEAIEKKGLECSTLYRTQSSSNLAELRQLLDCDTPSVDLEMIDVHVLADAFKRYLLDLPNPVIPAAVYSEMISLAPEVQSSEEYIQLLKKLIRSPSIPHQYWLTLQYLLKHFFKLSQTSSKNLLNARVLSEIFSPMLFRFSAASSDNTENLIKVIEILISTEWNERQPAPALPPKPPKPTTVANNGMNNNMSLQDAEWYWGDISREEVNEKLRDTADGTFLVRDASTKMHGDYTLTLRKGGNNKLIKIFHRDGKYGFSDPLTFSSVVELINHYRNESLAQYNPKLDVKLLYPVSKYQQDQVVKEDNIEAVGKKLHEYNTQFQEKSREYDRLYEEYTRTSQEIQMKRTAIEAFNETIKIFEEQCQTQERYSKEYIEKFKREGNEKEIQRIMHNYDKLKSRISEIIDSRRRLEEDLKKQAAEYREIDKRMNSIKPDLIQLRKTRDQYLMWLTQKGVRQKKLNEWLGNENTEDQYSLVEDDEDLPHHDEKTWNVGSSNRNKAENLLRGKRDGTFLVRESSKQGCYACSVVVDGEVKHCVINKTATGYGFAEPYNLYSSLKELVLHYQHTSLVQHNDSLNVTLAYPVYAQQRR
PROPERTY_MEASURED: IC50

{"ITEM_SMILES": "O=C1NC(=S)SC1=Cc1ccc2nccnc2c1", "READOUT_VALUE": "3 nM"}
